# Test system: A498 renal
# assay.info: NCI-60 one-dose screen, 48 h
# measurement.parameters: 10 µM unless noted
The panel holds about 83,000 compounds, 20% with a hit somewhere; the sample as a whole holds those more often. Active and inactive are the calls of the source. How the source made its calls: active means growth percent below 10; inactive means the rest.
Use one of these outcomes when replying: 1 (yes) (active), 0 (no) (inactive)

query: // param item: COc1nc2c(c(=O)n1C)N=C1c3ccccc3C(=O)C1C(c1ccccc1)N2 (stereo unspecified) ; yields the recorded call
result: 0 (no)

query: Which outcome was entered for the compound Cc1cc(OC(=O)c2ccc([N+](=O)[O-])cc2)nc2[nH]c(=O)sc12 in this test?
result: 0 (no)

query: Hi team, can someone confirm the assay call for NCCOc1ccccc1/C=C1\c2ccccc2-c2ccc([N+](=O)[O-])cc21 ?
result: 0 (no)

query: # outcome recorded in this test, key = COc1cc(C2C(C#N)=C(N)OC3=C2C(=O)c2ccccc2C3=O)cc(OC)c1O (stereo unspecified)
result: 1 (yes)

query: Which outcome was assigned to O=C(Nc1ccc(I)cc1F)c1cc(F)ccc1O in this test?
result: 1 (yes)

query: Write down the call the test reported for this compound. Item: Cc1cc(Br)c(N)c(Br)c1
result: 0 (no)

query: Hello, I am checking results. What call was entered for COc1ccc(/C=C/C(=O)c2c(C)nc3ccccc3c2/C=C/c2ccccc2)c(OC)c1 ?
result: 0 (no)

query: Recorded test call requested for COc1ccc(C(=O)C2CC2c2ccc(Cl)cc2)cc1 (stereo unspecified)
result: 0 (no)

query: Fill in: this test's call for O=C(Nc1ccc(-c2nc3ccc(NC(=O)c4ccc(Cl)cc4)cc3[nH]2)cc1)c1ccc(Cl)cc1 is ___
result: 0 (no)

query: Please let me know the test result on file for COc1ccc(-n2c(C(O)c3ccccc3)nn(CN3CCOCC3)c2=S)cc1 (stereo unspecified) .
result: 0 (no)

query: What was the test verdict on COc1ccc(Br)c(/C=C2\SC(=Nc3ccc(O)cc3)NC2=O)c1 ?
result: 0 (no)

query: Recorded test call requested for COc1ccc2sc3c(NCCCN)nc4ccccc4c3c(=O)c2c1
result: 0 (no)

query: Could you please tell me the result logged for COc1ccccc1C(=O)O/N=C(\N)Cc1cccc2ccccc12 in this assay?
result: 0 (no)

query: In this assay, the call recorded for COc1ccc(Cn2c(Br)c3c(c2-c2cc(OC)c(OC)c(OC)c2)CCc2sc(NC(=O)c4ccc(OC)cc4)nc2-3)cc1 was what?
result: 0 (no)

query: Lab log entry: C=C1C(=O)O[C@H]2[C@H]1CC/C(COC(=O)/C=C\C(=O)O)=C\CC[C@@]1(C)O[C@@H]21 — outcome as called in the assay?
result: 0 (no)

query: What classification did O=C(CSc1nc2ccccc2c(=O)n1-c1ccccc1)Nc1ccc(C(=O)/C=C/c2ccc(Cl)cc2)cc1 end up with in this test?
result: 0 (no)

query: Record request — test call for COc1cccc2cc(N(C)c3nc(C)nc4ccsc34)ccc12
result: 1 (yes)

query: Look up the recorded call for C[C@@H](C(=O)NCCCC#Cc1cnc(Nc2ccc(C#N)cc2)nc1NC1CC1)N(C)C(=O)/C=C/CN(C)C in this test.
result: 1 (yes)

query: Each compound tested received a call. Report the one for NC1(N2SC(S)=C3CCCC=C32)CCCCC1 .
result: 0 (no)

query: Any idea what this test logged for Cc1ccc(N=NC2C(=O)N(c3ccc(Cl)cc3)N(c3ccc(Cl)cc3)C2=O)cc1 ?
result: 0 (no)

query: Give the logged outcome of this assay for the following compound: O=C(NCCCN1CCC(N2CCCCC2)CC1)C1=Cc2cc(Br)ccc2OC1
result: 0 (no)

###

# Tested on: MDA-MB-435 melanoma
# assay.info: NCI-60 one-dose screen, 48 h
# measurement.parameters: 10 µM unless noted
This is part of a sample that, as a whole, favours compounds with a hit. Of some 83,000 tested, about 20% had one in any assay. The source made the active and inactive calls. How the source made its calls: active means growth percent below 10; inactive means the rest.
Choose one outcome from this list and give only that: active, inactive

query: Which outcome was entered for the compound CCOC(=O)C1(C(=O)OCC)N=C(c2ccccc2)C=C1c1ccccc1 in this test?
result: inactive

query: What outcome does the record of this test show for CCCCNc1nc(NC(C)(C)C)nc(NC(C)(C)C)n1 ?
result: inactive

query: Hello, I am checking results. What call was entered for Cc1ccc(CN2CCC(C(=O)Nc3ccc(-c4cc5ccccc5[nH]4)cc3)CC2)o1 ?
result: inactive

query: // return assay outcome for O=c1oc2ccc(Cl)cc2c(=O)n1-c1ccc(F)cc1F
result: active

query: Dear all, I need the recorded test outcome for COc1ccc(S(=O)(=O)N(Cc2ccc3c(n2)C=CC(C)(C)O3)C2CCC2)cc1OC , thank you.
result: active

query: Which result was noted for this compound in the test: O=C1NC(=O)C(=Cc2cn(Cc3cn(Cc4ccc(Cl)cc4Cl)nn3)c3ccccc23)C(=O)N1
result: inactive

query: What outcome does the record of this test show for CCN1C(=O)N(c2ccccc2)C2NN=c3s/c(=C4\C(=O)N(C(C)C)c5ccccc54)c(=O)n3C21 (centres undefined) ?
result: active

query: Identify the outcome logged in this assay for the compound shown: O=Cc1c(OCc2cnnn2CC(=O)Nc2ccc(Cl)cc2)ccc2ccccc12
result: inactive

query: What call does the record list for O=C1CCC(N2C(=O)c3cccc(NCCCCCCOc4ccc(Nc5nccc(Nc6ccccc6)n5)cc4)c3C2=O)C(=O)N1 (centres undefined) ?
result: inactive

###

# Test system: HOP-92 NSCLC
# assay.info: NCI-60 one-dose screen, 48 h (100 = growth as untreated, 0 = no growth, -100 = all killed)
# measurement.parameters: 10 µM unless noted
# Experimental: Growth inhibition of the HOP-92 human Non-Small Cell Lung tumor cell line is measured as a screen for anti-cancer activity. Cells are grown in 96 well plates and exposed to the test compound for 48 hours. Compounds are tested at a single concentration, which is 10^-5 M for most compounds. The reported endpoint is percent growth (GI% or GIPRCNT), where numbers from 0 - 100% represent growth inhibition, and numbers from -100% - 0 represent cell death. […]
Compounds without any hit were thinned out: in the full panel of roughly 83,000, 20% have a hit.
Where growth equals or exceeds 80%, the correct label is class 1; where it does not, the label is class 0.

query: Exam item: decide whether the reported growth for OCCNc1nc(Nc2ccc(C3=NN(c4cc(Cl)cc(Cl)c4)C(c4ccc(C(F)(F)F)cc4)C3)cc2)nc(N2CCOCC2)n1 (centres undefined) is at least 80%.
result: class 1

query: Is the recorded value of growth equal to or greater than 80% for this molecule? O=C(Nc1ccc(Br)cc1F)c1cc(I)ccc1O
result: class 0

query: Is it the case that CS(=O)(=O)Nc1ccc(C(=O)NC(C(=O)NO)c2ccc(-c3cccc(F)c3)cc2)cc1 (centres undefined) has growth reaching or exceeding 80%?
result: class 0

query: Check the entry O=C(/C=C/c1ccc(Cl)cc1)c1ccc(Nc2nc(NCCO)nc(Nc3ccc(Cl)cc3)n2)cc1 : does growth equal or exceed 80%?
result: class 0

query: Would you say CC1CCCCN1CCCNC(=O)c1ccc2c(c1)sc1nc(-c3ccc(F)cc3)cn12 (centres undefined) shows growth at minimum 80%?
result: class 1

query: Reported growth at or above 80%? COC(=O)/C(CCC=C(C)C)=C1\[C@@H](OC(C)=O)C[C@@]2(C)[C@H]1C[C@@H](O)[C@H]1[C@@]3(C)CC[C@H](NCc4ccccc4)[C@@H](C)[C@@H]3CC[C@@]12C
result: class 0

query: Dear colleague, could you confirm whether O=C(NC1CCCCC1)C(c1cccs1)N(CCc1ccccc1)C(=O)c1ccco1 (centres undefined) has growth at or above 80%?
result: class 0

query: Quick check, growth >= 80%? Nc1ccc(-c2ccc(-c3ccccc3N)c3[nH]c4ccccc4c23)cc1
result: class 0

###

# System: SF-539 CNS
# assay.info: NCI-60 one-dose screen, 48 h (100 = growth as untreated, 0 = no growth, -100 = all killed)
# measurement.parameters: 10 µM unless noted
The panel holds about 83,000 compounds, 20% with a hit somewhere; the sample as a whole holds those more often.
# if measured growth < 90%: Yes  # else: No

query: Please state whether growth is below 90% for CC[C@@H](C)[C@H](NC(=O)Cn1cc(CNC(=O)[C@@H](NC(=O)OCc2ccccc2)C(C)C)nn1)C(=O)O
result: No

query: Input COc1ccc(C2C3=C(COC3=O)N(CCO)c3cc4c(cc32)CCC4)cc1OC (centres undefined) ; condition: growth strictly below 90%. Does it hold?
result: Yes

query: Determine if CCCC(=O)CC(C)=O.CCCC(=O)CC(C)=O.[Cu] shows growth strictly lower than 90%.
result: No

query: In plain terms, does O=C(Nc1ccc(N2CCNCC2)cc1)c1[nH]ncc1Nc1cc(Oc2ccccc2)ncn1 come in under 90% for growth?
result: Yes

query: Quick check: does COc1ccc(Cn2c(Br)c3c(c2Br)-c2nc(N)sc2CC3)cc1 have growth under 90%?
result: Yes

Data origin: PubChem BioAssay (NCI)
